B1: TPR t1 (parent)
chain: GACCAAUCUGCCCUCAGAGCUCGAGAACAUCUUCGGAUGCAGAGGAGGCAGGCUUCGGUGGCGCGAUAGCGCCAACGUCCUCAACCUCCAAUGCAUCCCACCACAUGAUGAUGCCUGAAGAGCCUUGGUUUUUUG

# Variants of: B1
# ASSAY_DETAILS: polymerase ribozyme fitness, log enrichment relative to wild type (log ratio); higher = more active; in vitro selection for triplet polymerase activity
Outcome: True for polymerase ribozyme fitness (log ratio) of at least -3; False for anything lower.

Exercise: Is polymerase ribozyme fitness (log ratio) for U55G A74U U81A C85G G122A at or above -3?
Solution: False

Exercise: Now the same for U21A G23A A121C
Solution: False

Exercise: Now the same for U21C U59G C101A
Solution: True

Exercise: Now the same for C62G U78A U106A
Solution: True

Exercise: Now the same for A5G C62A G117C
Solution: False

Exercise: Now the same for C13G C53A
Solution: True

Exercise: Now the same for C70U G71A U129G
Solution: True

Exercise: Now the same for C73U G110A
Solution: True

Exercise: Now the same for C101U U129G U130C
Solution: True

Exercise: Now the same for C114U U133A
Solution: True

Exercise: Now the same for G35C C124A
Solution: True

Exercise: Now the same for G47A C73U G117U G135U
Solution: False

Exercise: Now the same for G77U U132A
Solution: True

Exercise: Now the same for C12U G113A U125A
Solution: True

Exercise: Now the same for A24U U30G G63U C102G
Solution: False

Exercise: Now the same for G45C C89U
Solution: True

Exercise: Now the same for A18G G19A C88U A90G
Solution: True

Exercise: Now the same for C56A C86U
Solution: True

Exercise: Now the same for C12A C56U A95G C115A C124A
Solution: True

Exercise: Now the same for G71U U96A
Solution: True

Exercise: Now the same for U78G C80U G93U
Solution: True

Exercise: Now the same for C11A U132C
Solution: True

Exercise: Now the same for G57C G61A C97G
Solution: False

Exercise: Now the same for A6U G117A
Solution: True

Exercise: Now the same for A41U C53G C62G G113C
Solution: False

Exercise: Now the same for A6U G52A A74U
Solution: True

Exercise: Now the same for A50U G52A A84U G128U
Solution: False

Exercise: Now the same for G36A C64G C104G G110A G127U
Solution: False

Exercise: Now the same for A6U G57A G58C A103C A105C
Solution: False

Exercise: Now the same for C89G A100C
Solution: False

Exercise: Now the same for C94G U131G U132G
Solution: True

Exercise: Now the same for A5U C8A
Solution: True

Exercise: Now the same for G10A U33C
Solution: False

Exercise: Now the same for G17U U55A G77C C86G C124U
Solution: False

Exercise: Now the same for C40A A41C C49A C70U U92A C102G U109A
Solution: False

Exercise: Now the same for C49A C56A U130C
Solution: True

Exercise: Now the same for A46U A66C C123G C124A
Solution: True

Exercise: Now the same for A121G G128A
Solution: True

Exercise: Now the same for C15A C20U U109A
Solution: False

Exercise: Now the same for A2C C76U
Solution: True

Exercise: Now the same for C102U U130C
Solution: True

Exercise: Now the same for G10A C15U G17A A41U C72U A105U G120A G122A
Solution: False

Exercise: Now the same for C49U G52U C56U G77U C101A
Solution: True

Exercise: Now the same for C3A U7A G57U G60C A83U A121C
Solution: True

Exercise: Now the same for A29G A46U G52U G57U U87G C115G
Solution: False

Exercise: Now the same for G93A C115G
Solution: True

Exercise: Now the same for G47U A119U
Solution: True

Exercise: Now the same for C15A C88U C123U
Solution: True

Exercise: Now the same for G63U C97U
Solution: True

Exercise: Now the same for A2C A84G C99U
Solution: False

Exercise: Now the same for C28U G110U
Solution: True

Exercise: Now the same for U59G G127U
Solution: True

Exercise: Now the same for C62A G128A
Solution: True

Exercise: Now the same for A2U C13G C62U
Solution: True

Exercise: Now the same for A16U C49A G63C
Solution: True

Exercise: Now the same for C28U U32C G71A
Solution: True

Exercise: Now the same for C82A U92A
Solution: False

Exercise: Now the same for A46U G135U
Solution: True

Exercise: Now the same for A74G C102G U132C
Solution: False

Exercise: Now the same for A29U C115A
Solution: True

Exercise: Now the same for C20A G71A
Solution: False

Exercise: Now the same for C72A C89U
Solution: True

Exercise: Now the same for C8A C80G C82G C88A C114U
Solution: False

Exercise: Now the same for G10A U109A
Solution: False

Exercise: Now the same for U109A A119G
Solution: False

Exercise: Now the same for C8G U9G
Solution: True

Exercise: Now the same for C4A G69U A74G A90U U106A G117C
Solution: False

Exercise: Now the same for C53U G57U C62G
Solution: True

Exercise: Now the same for C94A C123U
Solution: True

Exercise: Now the same for A2U C20U G63C C89A A111C C123A
Solution: False

Exercise: Now the same for G19A C20U
Solution: True

Exercise: Now the same for A75G C114A
Solution: True

Exercise: Now the same for G45U A91C
Solution: True

Exercise: Now the same for A43G C72A
Solution: True

Exercise: Now the same for C31G C80A A105G G113A
Solution: False

Exercise: Now the same for C62A U126G
Solution: True

Exercise: Now the same for A6G G17C
Solution: False

Exercise: Now the same for A5C C22U C89A A121G
Solution: False

Exercise: Now the same for C8U A27G C82A
Solution: True

Exercise: Now the same for G47A C82G C123G U125A
Solution: True

Exercise: Now the same for A24U C124A
Solution: False

Exercise: Now the same for U7G C72U
Solution: True

Exercise: Now the same for C34U A41G C53U G69U
Solution: True

Exercise: Now the same for G61C G120A
Solution: True

Exercise: Now the same for C8A G65C C115A C123G
Solution: False

Exercise: Now the same for A18G G60A C88U A90C
Solution: False

Exercise: Now the same for A5C C56G C80U
Solution: True
